# Tested on: Human papillomavirus type 1a E7 protein (residues 1-88)
# method_description: HPV1a E7 small-molecule binders, primary screen, biochemical, small-molecule microarray, residues 1-88, 635 nm (AID 1129)
# study_conditions: small-molecule microarray binding, fluorescence 635 nm; higher = more signal

compound: C=C(/C(=C/C[C@@H](OC(C)=O)c1ccc(OCCO)cc1)c1cnc2ccccc2c1)C(C)C
composite z-score: 0.408

compound: COc1ccc([Si](C)(C)[C@H]2[C@H](CCO)O[C@@]3(C(=O)N(C)c4c(Br)cc(C)cc43)[C@@H]2C)cc1
composite z-score: 0.969

compound: C=CCNC(=O)[C@@H]1[C@H]2C(=O)O[C@H](c3ccccc3)[C@H](c3ccccc3)N2[C@H](c2ccc(OCCO)cc2)[C@@]12C(=O)Nc1ccc(C#CCCO)cc12
composite z-score: 1.19

compound: CCCCN1CC=CC23O[C@@H]4C=CCOC(=O)[C@@H]4[C@H]2C(=O)N(CCCCCO)[C@@H]3C1=O (stereo partly specified)
composite z-score: -0.444

compound: O=C1O[C@@H](c2ccccc2)[C@@H](c2ccccc2)N2[C@@H](c3ccc(OCCO)cc3)[C@]3(C(=O)Nc4ccccc43)[C@@H](C(=O)NC[C@H](O)c3ccccc3)[C@H]12
composite z-score: 0.894

compound: O=C1O[C@H](c2ccccc2)[C@H](c2ccccc2)N2[C@H]1[C@@H](C(=O)N1CCN(c3ncccn3)CC1)[C@]1(C(=O)Nc3ccc(C#CC4=CCCCC4)cc31)[C@H]2c1ccc(O)cc1
composite z-score: 1.21

compound: C=C(CCCC)/C(=C/C[C@@H](OC(C)=O)c1ccccc1OCCO)c1cnc2ccccc2c1
composite z-score: 0.356

compound: CO[C@H]1O[C@H](CO)[C@@H](OC(=O)Nc2ccc(Br)cc2)[C@H](OC(=O)c2cc3ccccc3[nH]2)[C@H]1OC(=O)c1cc2ccccc2[nH]1
composite z-score: 1.14

compound: COc1ccc([Si](C)(C)[C@H]2[C@H](CC(=O)N3Cc4ccccc4C[C@H]3CO)O[C@@]3(C(=O)N(Cc4ccc(N5CCC5=O)cc4)c4ccccc43)[C@@H]2C)cc1
composite z-score: 1.13

compound: O=C1C2C=CC(C(O)c3ccc(F)cc3)N(Nc3ccccc3F)C2C(=O)N1c1ccccc1 (stereo unspecified)
composite z-score: 1.13

compound: O=C1OCCC/C=C\[C@H]2OC34C=CCN(Cn5nnc6ccccc65)C(=O)[C@H]3N(CCCCCCO)C(=O)[C@@H]4C12 (stereo partly specified)
composite z-score: -0.776

compound: CC(C)(C)OC(=O)CC[C@]12N=C(c3ccc(OCCCO)cc3)O[C@H]1c1ccccc1N(CCS(=O)(=O)c1ccccc1)C2=O
composite z-score: 1.24

compound: C=C(CCCC)C(=O)CC[C@H](OC(C)=O)c1cccc(OCCO)c1
composite z-score: -0.755

compound: COc1ccc(CCN2C(=O)[C@@]3(c4ccc([N+](=O)[O-])cc4)CC(=O)N(C4CCCCC4)[C@@H]3c3ccc(CO)cc32)cc1
composite z-score: -0.82

compound: COc1ccc([C@H]2OC[C@@H]3CC4(CC=CC4)C(=O)N32)cc1
composite z-score: 0.828

compound: CCOC(=O)C[C@H]1[C@H](OC(=O)c2cc3ccccc3oc2=O)[C@@H](NC(=O)C2CCCCC2)c2cc(OCCCO)ccc2N1C(=O)c1ccccc1
composite z-score: 0.942

compound: CN(C)C(=O)[C@@]1(Cc2ccccc2)N=C(c2ccc(OCCCO)cc2)O[C@H]1c1ccccc1N=[N+]=[N-]
composite z-score: 1.25

compound: COc1ccc(C#Cc2ccc3c(c2)[C@]2(C(=O)N3)[C@H](c3ccccc3OCCO)N3[C@H](c4ccccc4)[C@H](c4ccccc4)OC(=O)[C@H]3[C@@H]2C(=O)O)cc1
composite z-score: 1.22

compound: C=CCN1C(=O)[C@@]2(O[C@@H](CCO)[C@H]([Si](C)(C)c3ccc(OC)cc3)[C@H]2C)c2cc(NC(=O)c3ccc(OC)cc3)ccc21
composite z-score: 0.563

compound: COCCOC(=O)N1C(=O)[C@@]2(c3cc(C#CC4=CCCCC4)ccc31)[C@H](C(N)=O)[C@H]1C(=O)O[C@H](c3ccccc3)[C@H](c3ccccc3)N1[C@@H]2c1ccc(OCCO)cc1
composite z-score: 1.21

compound: CCc1oc(CC[C@@H](CO)NC(=O)NCCn2cc(C3(O)CCCCC3)nn2)c(C(=O)OC)c1C(=O)OC
composite z-score: 0.687

---

We begin with a simple list: items and their reported composite z-score.
# tested_target: Follistatin (Homo sapiens)
# method_description: follistatin binders on small-molecule microarrays, primary screen, biochemical, small-molecule microarray, 635/667 nm fluorescence (AID 1132)
# study_conditions: FST binding, 635 nm fluorescence, higher = more signal
readout_kind: composite z-score

molecule: CN1C(=O)C2C=CC(C(O)c3cc(C(F)(F)F)cc(C(F)(F)F)c3)N(N3CCCCC3)C2C1=O (stereo unspecified)
observed: -0.165
//
molecule: C=CCN(Cc1ccccc1)C(=O)C(c1cccs1)N(CCOCCO)C(=O)/C=C\C(=O)O (stereo unspecified)
observed: -2.64
//
molecule: O=C1c2ccccc2[C@@]2(Cc3ccccc3N(CCN3CCOCC3)C2=O)[C@H](c2ccc(CO)cc2)N1Cc1ccccc1
observed: 0.0312
//
molecule: CCOC(=O)C[C@H]1[C@H](OC(=O)Cc2ccc3c(c2)OCO3)[C@@H](NC(=O)c2ccc(-c3ccccc3)cc2)c2cc(OCCCO)ccc2N1C(=O)Cc1ccc(OC)cc1
observed: 0.518
//
molecule: O=C1C[C@]2(c3ccc([N+](=O)[O-])cc3)C(=O)N(CCN3CCOCC3)c3cc(CO)ccc3[C@H]2N1C1CCCCC1
observed: -0.414
//
molecule: CN(C)CCCNC(=O)[C@@]1(c2ccc([N+](=O)[O-])cc2)CC(=O)N(C2CCCCC2)[C@@H]1c1ccc(CO)cc1I
observed: 0.336
//
molecule: CCOC1=C2C(CN(S(=O)(=O)c3ccc(C)cc3)C2c2ccc(C)cc2)C2C(=O)N(c3ccccc3)C(=O)C2C1 (stereo unspecified)
observed: 0.475
//
molecule: CCCCN1CC=CC23O[C@@H]4/C=C\CCC(C)OC(=O)C4[C@H]2C(=O)N(CCCCCO)[C@@H]3C1=O (stereo partly specified)
observed: -1.13
//
molecule: COc1ccc([Si](C)(C)[C@H]2[C@H](CCO)O[C@@]3(C(=O)N(Cc4ccc(N5C(=O)COc6ccccc65)cc4)c4ccccc43)[C@@H]2C)cc1
observed: -0.566
//
molecule: O=C1O[C@H](c2ccccc2)[C@H](c2ccccc2)N2[C@H]1[C@@H](C(=O)Nc1nc3ccccc3s1)[C@]1(C(=O)Nc3ccc(C#CC4(O)CCCCCC4)cc31)[C@H]2c1ccc(OCCO)cc1
observed: 1.43
//
molecule: CC(C)C[C@@H]1NC(=O)[C@@H]2C[C@H](C(=O)NCCCCCN)[C@H](c3cccc(OCCO)c3)N2C1=O
observed: 0.555

---

# System: Sonic hedgehog protein (Shh)
# method_description: small-molecule binders of Shh protein, primary screen, biochemical, small-molecule microarray, 635/667 nm fluorescence (AID 1151);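 also: Shh protein binding to compounds spotted on small-molecule microarray slides; score combines spot fluorescence intensity with signal-to-noise across triplicate slides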
# study_conditions: small-molecule microarray binding, 635 nm fluorescence; higher = more signal
# if value of composite z-score reaches -0.5, tag fulfilled; if it stays below, tag not fulfilled

compound: O=C1OCCC/C=C\[C@H]2OC34C=CCN(Cn5nnc6ccccc65)C(=O)[C@H]3N(CCO)C(=O)[C@@H]4C12 (stereo partly specified)
classification: not fulfilled
//
compound: COCC(=C=CC[C@H](O)c1ccccc1OCCO)C[C@H](O)c1cc(Cl)cc(Cl)c1O
classification: fulfilled
//
compound: O=C1NCC(=O)N2[C@@H]1C[C@@H](C(=O)O)[C@H]2c1cccc(OCCO)c1
classification: fulfilled
//
compound: O=C1OCCC=C[C@H]2OC34C=CCN(CCN5CCOCC5)C(=O)[C@H]3N(CCCCCCO)C(=O)[C@@H]4C12 (stereo partly specified)
classification: fulfilled
//
compound: C=C(COC)/C(=C/C[C@@H](OC(C)=O)c1ccc(OCCO)cc1)c1cc(C(=O)OC)ccc1OC
classification: fulfilled
//
compound: CN1C(=O)C2C=CC(C(O)c3ccccc3)N(Nc3ccccc3)C2C1=O (stereo unspecified)
classification: not fulfilled
//
compound: O=C(NCc1ccccc1)[C@@]1(Cc2ccccc2)N=C(c2ccc(OCCCO)cc2)O[C@H]1c1ccccc1
classification: fulfilled
//
compound: Cc1ccc(S[C@]2(C(=O)NC3CC3)CC(=O)N(C3Cc4ccccc4C3)[C@@H]2c2ccc(CO)cc2)cc1
classification: not fulfilled
//
compound: CN1C(=O)[C@]2(Cc3ccccc3)N=C(c3ccc(OCCCO)cc3)O[C@@H]2c2ccccc21
classification: fulfilled
//
compound: CCOC(=O)C[C@H]1[C@H](OC(=O)c2cc3ccccc3oc2=O)[C@@H](NC(=O)Cc2ccc(OC)cc2)c2cc(OCCCO)ccc2N1C(=O)c1ccccc1
classification: fulfilled
//
compound: O=C1NC(=O)C2C1C=CC(C(O)Cc1ccccc1)N2Nc1ccc(Cl)cc1Cl (stereo unspecified)
classification: not fulfilled
